Test: Plasma pharmacokinetics of BI 187004 after single oral doses (LC–MS/MS)
Settings: male, human, plasma, po, 160 mg, BI 187004 plasma concentrations, 160 mg single oral, planned time 3 h, individual subjects

{"SMILES_REPRESENTATION": "N#Cc1ccc2c(c1)[C@H]1CCCN(C(=O)c3ccc4[nH]cnc4c3)[C@H]1C2", "concentration at 3 h": "5.47 µM"}

###

Assay: Plasma pharmacokinetics of BI 187004 after single oral doses (LC–MS/MS)
Details: male, human, plasma, po, 2.5 mg, Plasma concentration, individual subjects, 2.5 mg single oral; planned time 8 h
QUANTITY_KIND: concentration at 8 h (nM)

{"SMILES_REPRESENTATION": "N#Cc1ccc2c(c1)[C@H]1CCCN(C(=O)c3ccc4[nH]cnc4c3)[C@H]1C2", "READING": 6.73}

###

Assay: Plasma pharmacokinetics of BI 187004 after single oral doses (LC–MS/MS)
Conditions: male, human, plasma, po, 80 mg, BI 187004 plasma concentrations, 80 mg single oral, planned time 96 h, gMean

{"SMILES_REPRESENTATION": "N#Cc1ccc2c(c1)[C@H]1CCCN(C(=O)c3ccc4[nH]cnc4c3)[C@H]1C2", "concentration at 96 h / nM": 32.3}

###

Assay: Plasma pharmacokinetics of BI 187004 after single oral doses (LC–MS/MS)
Details: male, human, plasma, po, 20 mg, BI 187004 plasma concentrations, 20 mg single oral, planned time 24 h, Max

{"SMILES_REPRESENTATION": "N#Cc1ccc2c(c1)[C@H]1CCCN(C(=O)c3ccc4[nH]cnc4c3)[C@H]1C2", "concentration at 24 h, nM": 353}

###

Assay: Plasma pharmacokinetics of BI 187004 after single oral doses (LC–MS/MS)
Details: male, human, plasma, po, 160 mg, BI 187004 plasma concentrations, 160 mg single oral, planned time 5 h, individual subjects

{"MOLECULE": "N#Cc1ccc2c(c1)[C@H]1CCCN(C(=O)c3ccc4[nH]cnc4c3)[C@H]1C2 [BI 187004]", "concentration at 5 h, µM": 4.42}

###

Assay: Plasma pharmacokinetics of BI 187004 after single oral doses (LC–MS/MS)
Conditions: male, human, plasma, po, 2.5 mg, Plasma concentration Median, 2.5 mg single oral; 10 h

{"SMILES_REPRESENTATION": "N#Cc1ccc2c(c1)[C@H]1CCCN(C(=O)c3ccc4[nH]cnc4c3)[C@H]1C2", "UNIT_NAME": "nM", "concentration at 10 h": 4.52}

###

Assay: Plasma pharmacokinetics of BI 187004 after single oral doses (LC–MS/MS)
Conditions: male, human, plasma, po, 360 mg, BI 187004 plasma concentrations, Min, 360 mg single oral, planned time 36 h

{"MOLECULE": "N#Cc1ccc2c(c1)[C@H]1CCCN(C(=O)c3ccc4[nH]cnc4c3)[C@H]1C2 [BI 187004]", "concentration at 36 h (nM)": 830}

###

Assay: Plasma pharmacokinetics of BI 187004 after single oral doses (LC–MS/MS)
Conditions: male, human, plasma, po, 160 mg, BI 187004 plasma concentrations, 160 mg single oral, planned time 6 h, Median
QUANTITY_KIND: concentration at 6 h

{"SMILES_REPRESENTATION": "N#Cc1ccc2c(c1)[C@H]1CCCN(C(=O)c3ccc4[nH]cnc4c3)[C@H]1C2", "READING": "4.23 µM"}

###

Experiment: Plasma pharmacokinetics of BI 187004 after single oral doses (LC–MS/MS)
Settings: male, human, plasma, po, 160 mg, BI 187004 plasma concentrations, 160 mg single oral, planned time 72 h, gMean
QUANTITY_KIND: concentration at 72 h (nM)

{"SMILES_REPRESENTATION": "N#Cc1ccc2c(c1)[C@H]1CCCN(C(=O)c3ccc4[nH]cnc4c3)[C@H]1C2", "QUANTITY_KIND": "concentration at 72 h", "READING": 125}

###

Test: Plasma pharmacokinetics of BI 187004 after single oral doses (LC–MS/MS)
Settings: male, human, plasma, po, 20 mg, BI 187004 plasma concentrations, 20 mg single oral, planned time 96 h, Median
QUANTITY_KIND: concentration at 96 h (nM)

{"SMILES_REPRESENTATION": "N#Cc1ccc2c(c1)[C@H]1CCCN(C(=O)c3ccc4[nH]cnc4c3)[C@H]1C2", "READING": 9.48}

###

Assay: Plasma pharmacokinetics of BI 187004 after single oral doses (LC–MS/MS)
Details: male, human, plasma, po, 10 mg

{"SMILES_REPRESENTATION": "N#Cc1ccc2c(c1)[C@H]1CCCN(C(=O)c3ccc4[nH]cnc4c3)[C@H]1C2", "UNIT_NAME": "µM·h", "AUC(0-t)": 4.38}

###

Experiment: Plasma pharmacokinetics of BI 187004 after single oral doses (LC–MS/MS)
Details: male, human, plasma, po, 240 mg, BI 187004 plasma concentrations, Min, 240 mg single oral, planned time 5 h

{"SMILES_REPRESENTATION": "N#Cc1ccc2c(c1)[C@H]1CCCN(C(=O)c3ccc4[nH]cnc4c3)[C@H]1C2", "concentration at 5 h [nM]": 494}

###

Test: Plasma pharmacokinetics of BI 187004 after single oral doses (LC–MS/MS)
Details: male, human, plasma, po, 10 mg, Plasma concentration gMean, 10 mg single oral; 96 h
QUANTITY_KIND: concentration at 96 h (nM)

{"SMILES_REPRESENTATION": "N#Cc1ccc2c(c1)[C@H]1CCCN(C(=O)c3ccc4[nH]cnc4c3)[C@H]1C2", "UNIT_NAME": "nM", "READING": 5.48}

###

Test: Plasma pharmacokinetics of BI 187004 after single oral doses (LC–MS/MS)
Settings: male, human, plasma, po, 20 mg, BI 187004 plasma concentrations, 20 mg single oral, planned time 2 h, Median
QUANTITY_KIND: concentration at 2 h (nM)

{"SMILES_REPRESENTATION": "N#Cc1ccc2c(c1)[C@H]1CCCN(C(=O)c3ccc4[nH]cnc4c3)[C@H]1C2", "QUANTITY_KIND": "concentration at 2 h", "READING": 890}

###

Experiment: Plasma pharmacokinetics of BI 187004 after single oral doses (LC–MS/MS)
Conditions: male, human, plasma, po, 80 mg, BI 187004 plasma concentrations, 80 mg single oral, planned time 24 h, Median

{"COMPOUND": "N#Cc1ccc2c(c1)[C@H]1CCCN(C(=O)c3ccc4[nH]cnc4c3)[C@H]1C2 [BI 187004]", "concentration at 24 h [nM]": 812}

###

Assay: Plasma pharmacokinetics of BI 187004 after single oral doses (LC–MS/MS)
Details: male, human, plasma, po, 2.5 mg, Plasma concentration, individual subjects, 2.5 mg single oral; planned time 96 h

{"COMPOUND": "N#Cc1ccc2c(c1)[C@H]1CCCN(C(=O)c3ccc4[nH]cnc4c3)[C@H]1C2 [BI 187004]", "UNIT_NAME": "nM", "concentration at 96 h": 3.04}

###

Experiment: Plasma pharmacokinetics of BI 187004 after single oral doses (LC–MS/MS)
Conditions: male, human, plasma, po, 80 mg, BI 187004 plasma concentrations, 80 mg single oral, planned time 12 h, Mean
QUANTITY_KIND: concentration at 12 h (µM)

{"SMILES_REPRESENTATION": "N#Cc1ccc2c(c1)[C@H]1CCCN(C(=O)c3ccc4[nH]cnc4c3)[C@H]1C2", "READING": 1.38}

###

Assay: Plasma pharmacokinetics of BI 187004 after single oral doses (LC–MS/MS)
Conditions: male, human, plasma, po, 40 mg, BI 187004 plasma concentrations, 40 mg single oral, planned time 6 h, Mean

{"SMILES_REPRESENTATION": "N#Cc1ccc2c(c1)[C@H]1CCCN(C(=O)c3ccc4[nH]cnc4c3)[C@H]1C2", "UNIT_NAME": "nM", "concentration at 6 h": 1120}

###

Test: Plasma pharmacokinetics of BI 187004 after single oral doses (LC–MS/MS)
Conditions: male, human, plasma, po, 160 mg, BI 187004 plasma concentrations, 160 mg single oral, planned time 1.5 h, individual subjects

{"SMILES_REPRESENTATION": "N#Cc1ccc2c(c1)[C@H]1CCCN(C(=O)c3ccc4[nH]cnc4c3)[C@H]1C2", "concentration at 1.5 h [µM]": 7.48}

###

Experiment: Plasma pharmacokinetics of BI 187004 after single oral doses (LC–MS/MS)
Conditions: male, human, plasma, po, 360 mg, BI 187004 plasma concentrations, Mean, 360 mg single oral, planned time 2 h

{"SMILES_REPRESENTATION": "N#Cc1ccc2c(c1)[C@H]1CCCN(C(=O)c3ccc4[nH]cnc4c3)[C@H]1C2", "concentration at 2 h": "10.9 µM"}
